Hey, just so you know, these numbers are from ChEMBL document CHEMBL1143390.

- Measurement protocol: Chemical stability in Tris-HCl buffer assessed as hydrolysis half life at pH 8 in presence of porcine esterase
- Type: physicochemical
- Cond: pig, isolated protein
Listing: t1/2 of selected compounds
Parameter: t1/2 (min)

>>> print(df.to_string())
                              record_smiles  parameter  measurement
0  Cc1cn([C@H]2CO[C@@H](COC(=O)C3CC3)O2)c(=O)[nH]c1=O       t1/2         17.3
1  CC(=O)OC[C@@H]1OC[C@H](n2cc(C)c(=O)[nH]c2=O)O1       t1/2         16.3
2  Cc1cn([C@H]2CO[C@@H](COC(=O)[C@@H](N)CCC(=O)O)O2)c(=O)[nH]c1=O.Cl       t1/2         13.4
3  Cc1cn([C@H]2CO[C@@H](COC(=O)[C@@H](N)Cc3ccccc3)O2)c(=O)[nH]c1=O.Cl       t1/2         14.6
4  Cc1cn([C@H]2CO[C@@H](COC(=O)[C@@H](N)C(C)C)O2)c(=O)[nH]c1=O.Cl       t1/2         18.9
5  Cc1cn([C@H]2CO[C@@H](COC(=O)[C@@H](N)Cc3c[nH]c4ccccc34)O2)c(=O)[nH]c1=O.Cl       t1/2         17.8
6  Cc1cn([C@H]2CO[C@@H](COC(=O)[C@H](N)Cc3ccccc3)O2)c(=O)[nH]c1=O.Cl       t1/2         15.6
7  CCCCC(=O)OC[C@@H]1OC[C@H](n2cc(C)c(=O)[nH]c2=O)O1       t1/2         18.5
8  Cc1cn([C@H]2CO[C@@H](COC(=O)C(C)(C)C)O2)c(=O)[nH]c1=O       t1/2           17
